Listing of recorded EC50 by entry.
molecular target: WT/R232 STING protein (Homo sapiens, UniProt Q86WV6, H232R); test: Luciferase reporter assay in HEK293T-hSTING-Luciferase cells, WT/R232; settings: 20 hr stimulation, read-out: R232 Activity (EC50 range)
Sequence (Q86WV6 whole entry H232R): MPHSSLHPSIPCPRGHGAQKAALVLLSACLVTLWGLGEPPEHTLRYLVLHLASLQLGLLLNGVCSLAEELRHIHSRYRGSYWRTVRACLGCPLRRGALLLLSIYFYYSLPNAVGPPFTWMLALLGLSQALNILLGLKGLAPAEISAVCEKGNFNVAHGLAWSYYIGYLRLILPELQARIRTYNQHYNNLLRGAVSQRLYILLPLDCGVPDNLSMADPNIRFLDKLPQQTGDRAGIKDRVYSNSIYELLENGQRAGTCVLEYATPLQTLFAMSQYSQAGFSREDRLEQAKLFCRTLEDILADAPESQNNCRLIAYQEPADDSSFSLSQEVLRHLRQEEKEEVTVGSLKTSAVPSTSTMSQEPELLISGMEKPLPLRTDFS

molecule | EC50
O=C(NCc1ccco1)c1ccc2c(c1)N(Cc1c(Cl)cccc1Cl)C(=O)CS2 | 1 to 10 µM
O=C(NCc1cccs1)c1ccc2c(c1)N(Cc1c(F)cccc1Cl)C(=O)CS2 | 1 to 10 µM
CC1CN(C(=O)Cc2ccccc2)c2cc(C(=O)NCc3c(F)cc(F)cc3F)ccc2S1 (centres unmarked) | > 10 µM

Problem: Need EC50 of `O=C(CN1CCSc2ccc(C(=O)NCc3ccco3)cc21)c1ccccc1` , thanks.
Solution: > 10 µM

Problem: Moving on to the next molecule: O=C(NCC1CCCN(c2ccccc2)C1)c1ccc2c(c1)N(Cc1ccccc1F)C(=O)CS2 (centres unmarked)
Solution: > 10 µM

Problem: Note, next up: `Cc1cccc(C)c1CN1C(=O)CSc2ccc(C(=O)NCc3ccco3)cc21`
Solution: 1 to 10 µM

Problem: For Cc1ccc(CNC(=O)c2ccc3c(n2)N(C(C)c2cc(F)cc(F)c2)C(=O)C(C)S3)o1 (centres unmarked) then?
Solution: 1 to 10 µM

Problem: And `O=C(NCc1ccco1)c1ccc2c(c1)N(Cc1ccccc1OC(F)(F)F)C(=O)CS2` ?
Solution: > 10 µM

Each recorded value in this set is attributed to patent US20200138827A1.
